Percent Effect: recorded values
systemUnderTest: Shiga toxin 2 (Escherichia coli O157:H7) (UniProt P09385+P09386)
methodNotes: E. coli 0.157:H7 Shiga Toxin SOP - stx2 screening assay
Format: functional
Parameters: scale not given: direction of the effect not stated beside the values
assaySetup: 30 µM
API: value field is a number in %; no unit string.

**Q:** What does the data say about its Percent Effect? Entry: CCS(=O)(=O)N[C@@H]1CN(Cc2cc(C)on2)C[C@@H]2CCCO[C@@H]21
**A:** 1.95

**Q:** What does the data say about its Percent Effect? Entry: FC(F)(F)Cc1noc(CN2CCCC2c2noc(C3CC3)n2)n1 (stereo unspecified)
**A:** 16.4

---

systemUnderTest: Aspartate--tRNA(Asp/Asn) ligase (Mycobacterium tuberculosis (strain ATCC 25618 / H37Rv)); also: in the data most compounds retested in dose-response had high values
methodNotes: Assay for Asp RNA synthetase-1 from Mycobacterium tuberculosis
Type: functional
Parameters: scale not given: direction of the effect not stated beside the values
assaySetup: 30 µM
valueKind: Percent Effect (%)
API: value field is a number in %; no unit string.

Please review the following examples before continuing.
CCc1noc(C(C)N2CCC(N3CCCC3)CC2)n1 (configuration not stated) :: -8.83
Cc1cc(N2CCN(Cc3nccn3C)CC2)cc(C)n1 :: 2.09
Cn1cccc1CNC(=O)CCCc1nnc2ccccn12 :: 1.36

**Q:** Query Percent Effect on Aspartate--tRNA(Asp/Asn) ligase (Mycobacterium tuberculosis (strain ATCC 25618 / H37Rv)) for Cn1cc(-c2nc(CNCCn3cccn3)cs2)cn1
**A:** -0.0111

**Q:** Query Percent Effect on Aspartate--tRNA(Asp/Asn) ligase (Mycobacterium tuberculosis (strain ATCC 25618 / H37Rv)) for c1ccc(-c2cnc(CN3CCn4c(nnc4C4CC4)C3)o2)cc1
**A:** 0.278

---

systemUnderTest: Proteasome subunit beta (Trypanosoma cruzi) (UniProt O96673)
Sequence (whole entry): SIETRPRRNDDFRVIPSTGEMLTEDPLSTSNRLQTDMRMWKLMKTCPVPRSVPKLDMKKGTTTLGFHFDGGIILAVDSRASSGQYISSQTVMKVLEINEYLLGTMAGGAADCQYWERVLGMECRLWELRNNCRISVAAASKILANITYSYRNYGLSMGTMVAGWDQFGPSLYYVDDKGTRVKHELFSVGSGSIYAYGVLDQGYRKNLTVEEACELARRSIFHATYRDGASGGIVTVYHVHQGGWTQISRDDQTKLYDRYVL
methodNotes: Trypanosoma cruzi proteasome chymotrypsin-like activity (TcProtChymo) assay. Also: in the data most compounds retested in dose-response had high values.
Assay type: functional
Design: scale not given: direction of the effect not stated beside the values
assaySetup: 9.37 µM
valueKind: Percent Effect (%)
API: value field is a number in %; no unit string.

COc1ncccc1CN1C[C@@H]2COC[C@]2(COCC2CC2)C1 :: 14.4
CC[C@H](N)Cn1nc(-c2cccs2)oc1=O :: 16.7
c1ccc(CO[C@@H]2CO[C@@]3(CCN(Cc4ccccn4)C3)C2)nc1 :: 6.84
c1cnc(NC[C@@H]2CCC[C@@H]3CN(Cc4cccnc4)C[C@@H]32)nc1 :: 15.5
Cc1oc(-c2ccco2)nc1CC(=O)N1CCN(CC(C)(C)O)CC1 :: 8

// below: Percent Effect requested for another compound
**Q:** Query Percent Effect on Proteasome subunit beta (Trypanosoma cruzi) (UniProt O96673) for CSc1nccc(N2CCN(C)C3(CCNC(=O)CC3)C2)n1 (stereo unspecified)
**A:** 12.6

---

systemUnderTest: Aspartate--tRNA(Asp/Asn) ligase (Mycobacterium tuberculosis (strain ATCC 25618 / H37Rv)) (UniProt P9WFW3); also: in the data most compounds retested in dose-response had high values
Sequence (P9WFW3 whole entry): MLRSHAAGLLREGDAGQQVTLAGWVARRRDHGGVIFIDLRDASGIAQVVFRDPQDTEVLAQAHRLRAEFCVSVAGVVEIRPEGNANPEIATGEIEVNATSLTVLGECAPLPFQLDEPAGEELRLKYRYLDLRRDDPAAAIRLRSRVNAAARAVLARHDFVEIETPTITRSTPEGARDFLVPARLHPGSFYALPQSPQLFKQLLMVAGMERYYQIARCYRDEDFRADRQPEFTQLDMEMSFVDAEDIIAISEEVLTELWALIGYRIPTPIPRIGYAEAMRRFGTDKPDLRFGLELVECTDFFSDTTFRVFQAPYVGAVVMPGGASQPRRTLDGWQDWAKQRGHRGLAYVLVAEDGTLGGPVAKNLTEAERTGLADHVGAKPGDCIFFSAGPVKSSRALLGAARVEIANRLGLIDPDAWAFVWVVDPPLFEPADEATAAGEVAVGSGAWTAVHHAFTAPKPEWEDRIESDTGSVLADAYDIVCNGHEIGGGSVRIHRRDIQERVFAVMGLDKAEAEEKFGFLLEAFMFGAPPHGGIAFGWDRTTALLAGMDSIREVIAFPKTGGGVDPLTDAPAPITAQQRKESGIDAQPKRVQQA
methodNotes: Assay for Asp RNA synthetase-1 from Mycobacterium tuberculosis
Assay type: functional
Parameters: scale not given: direction of the effect not stated beside the values
assaySetup: 30 µM
valueKind: Percent Effect (%)
API: value field is a number in %; no unit string.

Please review the following examples before continuing.
c1cncc(OCC2CN(Cc3ccco3)Cc3nccn3C2)c1 (configuration not stated) :: -1.34
Cn1cc(C2COC3(CCN(C(=O)Cn4cccn4)CC3)C2)cn1 (configuration not stated) :: 8.57
Cc1ncoc1C(=O)N1CCn2c(COCC3CC3)cnc2C1C (configuration not stated) :: 7.95

**Q:** What does the data say about its Percent Effect? Entry: CCOc1cccc(C(C)NCc2ccc(OC)c(OC)c2OC)c1 (configuration not stated)
**A:** -1.94

**Q:** What does the data say about its Percent Effect? Entry: COc1ccc(NC(=O)C2CCOC2)c(N2CCN(C(C)=O)CC2)n1 (configuration not stated)
**A:** 1.42

**Q:** What does the data say about its Percent Effect? Entry: Cc1ccc(N2CCCC(NCC(=O)NCC3CC3)C2)nn1 (configuration not stated)
**A:** -5.2

**Q:** What does the data say about its Percent Effect? Entry: CCN(C1CCS(=O)(=O)C1)S(=O)(=O)c1cccc2cc(C)cnc12 (configuration not stated)
**A:** -1.66

**Q:** What does the data say about its Percent Effect? Entry: O=S(=O)(Cc1ccccc1)N1CCCn2cnc(CN3CCCC3)c2C1
**A:** 16

**Q:** What does the data say about its Percent Effect? Entry: CCc1ncnc2c1CCN(C(=O)Cc1ccccn1)CC2
**A:** -1.97

**Q:** What does the data say about its Percent Effect? Entry: Cn1cnc2c1C(COCC1CC1)CN(C(=O)Cc1ccsc1)C2 (configuration not stated)
**A:** 0.364

**Q:** What does the data say about its Percent Effect? Entry: Cc1cc(C(=O)N2CCC(c3nccn3Cc3ccncc3)CC2)no1
**A:** 10.1

**Q:** What does the data say about its Percent Effect? Entry: O=C(CCOCc1ccccc1)N1CCCC1c1noc(C2CC2)n1 (configuration not stated)
**A:** 14.9

**Q:** What does the data say about its Percent Effect? Entry: CCn1ncc2c1C(COCC1CC1)CN(S(=O)(=O)N(C)C)C2 (configuration not stated)
**A:** -1.37

**Q:** What does the data say about its Percent Effect? Entry: CC[C@@]1(O)CCN(C(=O)c2ccc(SC)cc2)C[C@H]1O
**A:** -1.2

**Q:** What does the data say about its Percent Effect? Entry: CN1[C@@H](C(=O)NCC2CC2)C[C@@H]2CN(Cc3ccco3)C[C@@H]21
**A:** 2.69

**Q:** What does the data say about its Percent Effect? Entry: CC(C)c1noc(CN2CCN(C(=O)c3ccccc3F)CC2)n1
**A:** -2.91

**Q:** What does the data say about its Percent Effect? Entry: Cc1nc(C2(O)CCCNCC2)sc1CCOc1ccc(Cl)cc1 (configuration not stated)
**A:** -4

**Q:** What does the data say about its Percent Effect? Entry: Cc1cn2c(n1)CCC(NC(=O)CCC(F)(F)F)C2 (configuration not stated)
**A:** -0.225

**Q:** What does the data say about its Percent Effect? Entry: CNC(=O)c1cc2c(nc1N(C)C)CCN(S(=O)(=O)C1CC1)CC2
**A:** 0.364

**Q:** What does the data say about its Percent Effect? Entry: Cn1ncc2c(=O)[nH]c(CN(Cc3cccc(F)c3)C3CC3)nc21
**A:** -6.19

**Q:** What does the data say about its Percent Effect? Entry: CNc1nc(CNC(=O)Nc2ccccc2SC)cs1
**A:** -0.278

**Q:** What does the data say about its Percent Effect? Entry: c1cc(CNCC2OCCc3cn(CC4CCOCC4)nc32)ccn1 (configuration not stated)
**A:** 4.2

**Q:** What does the data say about its Percent Effect? Entry: CCN1C(=O)CCC12CCCN(Cc1nccs1)CC2 (configuration not stated)
**A:** 2.52

**Q:** What does the data say about its Percent Effect? Entry: CC(=O)NCCNC(=O)N(C)Cc1ccc2c(c1)OCCO2
**A:** -4.52

**Q:** What does the data say about its Percent Effect? Entry: Cn1c(CN2CCOCC2)nnc1C1CCN(C(=O)C2CCCC2)CC1
**A:** 1.73

**Q:** What does the data say about its Percent Effect? Entry: CCn1nc(C)c2nc(C(C)C)nc(NCCCO)c21
**A:** 3.48

**Q:** What does the data say about its Percent Effect? Entry: Cn1ncc2c(=O)[nH]c(CN3CCC(Cc4ccccc4)CC3)nc21
**A:** -5.37

**Q:** What does the data say about its Percent Effect? Entry: COCCNC(=O)[C@H]1C[C@@H]2CCN(Cc3ccoc3)C[C@H]2O1
**A:** 3.35

---

systemUnderTest: Shiga toxin 2 (Escherichia coli O157:H7) (UniProt P09385+P09386)
methodNotes: E. coli 0.157:H7 Shiga Toxin SOP - stx2 screening assay
Assay type: functional
Design: scale not given: direction of the effect not stated beside the values
assaySetup: 30 µM
valueKind: Percent Effect (%)
API: value field is a number in %; no unit string.

**Q:** What does the data say about its Percent Effect? Entry: CCn1ccnc1CN1CCN(C(C)C(=O)NC2CCCCC2)CC1 (configuration not stated)
**A:** 22

**Q:** What does the data say about its Percent Effect? Entry: CCN(Cc1cccnc1)CC1CCCO1 (configuration not stated)
**A:** -16.3

**Q:** What does the data say about its Percent Effect? Entry: Cc1nc(CN2C(=O)CCC23CCN(c2ncccn2)CC3)cs1
**A:** -30.4

**Q:** What does the data say about its Percent Effect? Entry: Cc1nc(CN2CCCC(N(C)Cc3c(C)noc3C)C2)no1 (configuration not stated)
**A:** 18.6

Ref: ChEMBL document CHEMBL3988442
